Source: ChEMBL document CHEMBL3430912

Catalogue of IC50 readings, one per entry.
- Test system: Leishmania donovani
- protocolDetails: GSK_TCAKS: pIC50 Leishmania donovani viability assay using fluorescence intensity. Assay plates (1536-well) were prepared by adding 30nL per well of compound. For single shot assay, the final compound concentration was 5uM. […] Briefly, eGFP LdBOB axenic amastigotes were harvested, fixed and counted in a CASY cell counter (Roche-Applied Science). A final concentration of 1.5 * 10^5 cells per well were prepared in amastigote media containing 500 U/mL penicillin/streptomycin (Invitrogen) and 6uL was dispensed to each experimental well using a Multidrop Combi dispenser (Thermo Scientific). 6uL of assay media was dispensed to control columns used as reference for 100% compound response. Following incubation for 72 h at 37C, 5% CO2, 2 uL of resazurin was added to each well at a final concentration of 0.5 mM in phosphate buffered saline (PBS) with IGEPAL (Sigma-Aldrich), 0.05% (v/v).
- Assay type: functional, organism-based
Give the value, in units of µM, as a plain number.

[
  {
    "molecule": "Cc1nc2c(-c3ncn[nH]3)cc(NC(=O)Cc3ccccc3)cn2c1C",
    "IC50, µM": 0.794
  },
  {
    "molecule": "O=C(CN1CCN(S(=O)(=O)c2cccc([N+](=O)[O-])c2)CC1)Nc1ccc(Oc2ccccc2)cc1",
    "IC50, µM": 3.98
  },
  {
    "molecule": "c1cncc(CN(Cc2ccco2)Cc2c[nH]nc2-c2cccs2)c1",
    "IC50, µM": 31.6
  }
]

Under Leishmania donovani: IC50 value of CC(Cn1ccnc1)NC(=O)C1CC1c1cccc(Cl)c1Cl (stereo unspecified) ?
15.8

Under Leishmania donovani: IC50 value of N#Cc1cccc(CN2CCC(c3nc(-c4ccc(C(F)(F)F)nc4)no3)CC2)c1 ?
12.6

Under Leishmania donovani: IC50 value of O=C(CN(Cc1ccccn1)Cc1ccccn1)NCc1ccc2c(c1)OCO2 ?
12.6

Under Leishmania donovani: IC50 value of COc1cccc(-c2c(C)nn(-c3nc(N)nc(-c4ccccn4)n3)c2N)c1 ?
5.01

Under Leishmania donovani: IC50 value of O=C(NCC(c1cccnc1)N1CCc2ccccc2C1)C(=O)Nc1cccc(Cl)c1 (stereo unspecified) ?
1.26

Under Leishmania donovani: IC50 value of Cc1cc(C)n(-c2nc(NC(C)C)nc(NC(C)(C)C)n2)n1 ?
3.16

Under Leishmania donovani: IC50 value of CS(=O)(=O)N1CCC(Nc2ncc(Br)c(Nc3cccc(F)c3C(N)=O)n2)CC1 ?
0.1

Under Leishmania donovani: IC50 value of COc1cc(Nc2nccc(Nc3onc(C)c3C)n2)cc(S(=O)(=O)C2CCOCC2)c1 ?
39.8

Under Leishmania donovani: IC50 value of COc1ccc(NS(=O)(=O)c2cc(NC(=O)c3ccc([N+](=O)[O-])s3)ccc2OC)cc1 ?
0.501

Under Leishmania donovani: IC50 value of COc1ccc(-c2cc(C)no2)cc1S(=O)(=O)Nc1ccc(C)c(C)c1 ?
7.94

Under Leishmania donovani: IC50 value of COCc1cc(Nc2ccccc2)nc(-c2ccccn2)n1 ?
7.94

Under Leishmania donovani: IC50 value of COc1ccc(OC)c(NC(=O)c2ccc([N+](=O)[O-])o2)c1 ?
25.1

Under Leishmania donovani: IC50 value of Cc1ccc(NC(=O)c2ccnc(N3CCCC3)c2)cc1-c1cc(C(N)=O)ccc1C ?
25.1
